Here is a set of compounds with reported IC50 for MBT domain-containing protein 1 (Homo sapiens, UniProt Q05BQ5), compiled from the literature.

I would be grateful if you could share the reported IC50 for "O=C(c1ccc(C(=O)N2CCC(N3CCCC3)CC2)c(Nc2ccccc2)c1)N1CCC(N2CCCC2)CC1" .
78 µM

I would be grateful if you could share the reported IC50 for "O=C(c1cncc(Br)c1)N1CCC(N2CCCC2)CC1" .
> 300 µM

I would be grateful if you could share the reported IC50 for "c1cc(N2CCC(N3CCCC3)CC2)ccc1CCN1CCC1" .
> 300 µM

I would be grateful if you could share the reported IC50 for "O=C(c1ccc(C(=O)N2CCC(N3CCOCC3)CC2)cc1)N1CCC(N2CCCC2)CC1" .
> 10 µM

I would be grateful if you could share the reported IC50 for "CN(C)C1CCN(C(=O)c2ccc(C(=O)N3CCC(N(C)C)CC3)cc2)CC1" .
> 10 µM

I would be grateful if you could share the reported IC50 for N#CC1CCN(CCc2ccc(N3CCC(N4CCCC4)CC3)cc2)C1 (stereo unspecified) .
> 300 µM

I would be grateful if you could share the reported IC50 for CN1CCCC1C1CCN(C(=O)c2ccc(C(=O)N3CCC(C4CCCN4C)CC3)cc2)CC1 (stereo unspecified) .
> 10 µM

I would be grateful if you could share the reported IC50 for CC(C1CCN(C(=O)c2ccc(C(=O)N3CCC(N4CCCC4)CC3)cc2)CC1)N1CCN(C)CC1 (stereo unspecified) .
> 10 µM

I would be grateful if you could share the reported IC50 for "c1ccc(N2CCC(N3CCCC3)CC2)cc1" .
58 µM

I would be grateful if you could share the reported IC50 for "O=C(c1ccc(N2CCC(N3CCCC3)CC2)cc1)N1CCC(N2CCCC2)CC1" .
8.2 µM

I would be grateful if you could share the reported IC50 for "c1cc(CN2CCCC2)ccc1CCN1CCCC1" .
94 µM

I would be grateful if you could share the reported IC50 for "Nc1cc(C(=O)N2CCC(N3CCCC3)CC2)ccc1C(=O)N1CCC(N2CCCC2)CC1" .
> 10 µM

I would be grateful if you could share the reported IC50 for "O=C(NCCCN1CCCC1)c1ccc(C(=O)N2CCC(N3CCCC3)CC2)cc1" .
> 10 µM

I would be grateful if you could share the reported IC50 for CC(CCN(C)C)OC(=O)c1ccc(C(C)c2ccccc2)o1 (stereo unspecified) .
66 µM

I would be grateful if you could share the reported IC50 for "O=C(c1ccc(C(=O)N2CCC3(CCNC3)CC2)cc1)N1CCC(N2CCCC2)CC1" .
> 10 µM

I would be grateful if you could share the reported IC50 for "CCN(CC)CCCNS(=O)(=O)c1ccc(F)c(Cl)c1" .
> 100 µM

###

Here is a set of molecules with reported IC50 for MBT domain-containing protein 1 (Homo sapiens), compiled from the literature.

Give MBT domain-containing protein 1 (Homo sapiens) IC50 for "CN(C)C1CCN(C(=O)c2ccc(C(=O)N3CCC(N4CCCC4)CC3)cc2)CC1"
> 10 µM

Give MBT domain-containing protein 1 (Homo sapiens) IC50 for CN(C)CCCNC(=O)C1(O)c2cc(Br)ccc2NC(=O)N1c1ccc(Cl)cc1 (stereo unspecified)
37 µM

Give MBT domain-containing protein 1 (Homo sapiens) IC50 for "c1cc(N2CCC(N3CCCC3)CC2)ccc1CCN1CC2(COC2)C1"
247 µM

Give MBT domain-containing protein 1 (Homo sapiens) IC50 for CNCCCC1Sc2ccccc2Oc2ccccc21 (stereo unspecified)
> 100 µM

Give MBT domain-containing protein 1 (Homo sapiens) IC50 for "CNCCCCc1ccccc1"
> 100 µM

Give MBT domain-containing protein 1 (Homo sapiens) IC50 for "CCN1Cc2ccc(NC(=O)c3ccc(C(=O)N4CCC(N5CCCC5)CC4)cc3)cc2C1"
> 10 µM
